Experiment: Human liver microsome stability assay
Format: in vitro ADME
Settings: liver microsomes, read-out: in vitro CLint(mic)
Quantity Name: microsomal CLint at 1 µM (µL/min/mg)
Give a bare numeral; the unit µL/min/mg is implied.

Incoming: Provide microsomal CLint at 1 µM value for the following molecule: Cc1cnc(Nc2cnn(C)c2)nc1-c1cnn([C@H](CC#N)C2CCCC2)c1 [Compound 4]
Outgoing: 65.9

* * *

Molecular target: JAK1 (Homo sapiens, UniProt P23458)
Sequence (P23458 whole entry): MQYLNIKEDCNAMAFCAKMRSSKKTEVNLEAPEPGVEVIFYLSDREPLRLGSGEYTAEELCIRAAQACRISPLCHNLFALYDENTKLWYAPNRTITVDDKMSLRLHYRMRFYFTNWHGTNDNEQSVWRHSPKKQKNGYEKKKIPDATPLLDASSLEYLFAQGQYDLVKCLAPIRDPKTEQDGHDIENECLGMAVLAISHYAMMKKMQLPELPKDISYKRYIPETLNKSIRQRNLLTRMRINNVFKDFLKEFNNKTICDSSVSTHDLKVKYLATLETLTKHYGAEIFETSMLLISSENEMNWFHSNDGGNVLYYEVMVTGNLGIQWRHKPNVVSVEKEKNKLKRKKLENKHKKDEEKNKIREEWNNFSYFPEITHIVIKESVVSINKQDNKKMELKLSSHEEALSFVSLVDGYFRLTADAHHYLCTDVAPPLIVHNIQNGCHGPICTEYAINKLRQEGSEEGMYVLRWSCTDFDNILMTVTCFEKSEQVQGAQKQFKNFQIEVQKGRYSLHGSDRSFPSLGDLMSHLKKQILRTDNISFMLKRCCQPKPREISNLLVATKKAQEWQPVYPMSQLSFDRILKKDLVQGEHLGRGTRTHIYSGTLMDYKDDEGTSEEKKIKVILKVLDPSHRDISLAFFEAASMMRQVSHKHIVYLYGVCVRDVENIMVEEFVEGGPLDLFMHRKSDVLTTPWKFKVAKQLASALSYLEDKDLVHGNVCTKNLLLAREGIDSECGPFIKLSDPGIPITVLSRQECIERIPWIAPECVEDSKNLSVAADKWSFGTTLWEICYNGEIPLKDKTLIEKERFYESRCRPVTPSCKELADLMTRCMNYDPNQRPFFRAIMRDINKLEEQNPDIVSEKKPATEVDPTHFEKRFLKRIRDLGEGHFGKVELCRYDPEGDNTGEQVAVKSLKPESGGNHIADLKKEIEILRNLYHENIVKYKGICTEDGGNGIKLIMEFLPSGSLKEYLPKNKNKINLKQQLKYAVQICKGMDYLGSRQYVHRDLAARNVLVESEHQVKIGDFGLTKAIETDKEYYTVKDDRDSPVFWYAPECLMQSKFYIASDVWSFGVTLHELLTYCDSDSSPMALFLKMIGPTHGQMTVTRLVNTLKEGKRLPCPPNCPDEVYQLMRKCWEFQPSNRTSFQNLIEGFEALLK
Assay: JAK1 biochemical test (33P-ATP filter binding kinase assay)
Conditions: room temperature, 2 hours
Give measured IC50 for each item. Keep answers brief.

Incoming: Using JAK1 (Homo sapiens, UniProt P23458) as the test system, report measured IC50 of CCS(=O)(=O)N1CC(CC#N)(n2cc(-c3nc(Nc4cnn(C)c4)ncc3C)cn2)C1 .
Outgoing: < 1 nM

Incoming: # return IC50 for Cc1cnc(Nc2cnn(C3CCOCC3)c2)nc1-c1cnn([C@H](CC#N)C2CCCC2)c1 , test system: JAK1 (Homo sapiens, UniProt P23458)
Outgoing: < 1 nM

Incoming: Answer briefly: IC50 recorded on JAK1 (Homo sapiens, UniProt P23458) for Cc1cnc(Nc2cnn(CCO)c2)nc1-c1cnn([C@H](CC#N)C2CCCC2)c1
Outgoing: < 1 nM

Incoming: For JAK1 (Homo sapiens, UniProt P23458), give the measured IC50 of the entry CCS(=O)(=O)N1CC(CC#N)(n2cc(-c3nc(Nc4ccn(C)n4)ncc3C)cn2)C1.Cl [Compound 14, hydrochloride, reference compound]
Outgoing: > 10 nM

Incoming: // output IC50; input CCS(=O)(=O)N1CC(CC#N)(n2cc(-c3nc(Nc4cnn(C)c4)ncc3C3CC3)cn2)C1 ; system JAK1 (Homo sapiens, UniProt P23458)
Outgoing: < 10 nM

Incoming: Look up and report measured IC50 (JAK1 (Homo sapiens, UniProt P23458)) for the following compound: CCS(=O)(=O)N1CC(CC#N)(n2cc(-c3nc(Nc4ccc5ncn(C)c5c4)ncc3C)cn2)C1
Outgoing: < 1 nM

Incoming: Write down the reported IC50 (system: JAK1 (Homo sapiens, UniProt P23458)) of CCCS(=O)(=O)N[C@H]1C[C@@H](N(C)c2nc(Nc3cnn(C)c3)ncc2C)C1 [Compound 20, reference compound]
Outgoing: > 10 nM
